Below, each entry is listed with its recorded IC50.
- TEST SYSTEM: UniProt Q86TI2
- Sequence (Q86TI2 whole entry): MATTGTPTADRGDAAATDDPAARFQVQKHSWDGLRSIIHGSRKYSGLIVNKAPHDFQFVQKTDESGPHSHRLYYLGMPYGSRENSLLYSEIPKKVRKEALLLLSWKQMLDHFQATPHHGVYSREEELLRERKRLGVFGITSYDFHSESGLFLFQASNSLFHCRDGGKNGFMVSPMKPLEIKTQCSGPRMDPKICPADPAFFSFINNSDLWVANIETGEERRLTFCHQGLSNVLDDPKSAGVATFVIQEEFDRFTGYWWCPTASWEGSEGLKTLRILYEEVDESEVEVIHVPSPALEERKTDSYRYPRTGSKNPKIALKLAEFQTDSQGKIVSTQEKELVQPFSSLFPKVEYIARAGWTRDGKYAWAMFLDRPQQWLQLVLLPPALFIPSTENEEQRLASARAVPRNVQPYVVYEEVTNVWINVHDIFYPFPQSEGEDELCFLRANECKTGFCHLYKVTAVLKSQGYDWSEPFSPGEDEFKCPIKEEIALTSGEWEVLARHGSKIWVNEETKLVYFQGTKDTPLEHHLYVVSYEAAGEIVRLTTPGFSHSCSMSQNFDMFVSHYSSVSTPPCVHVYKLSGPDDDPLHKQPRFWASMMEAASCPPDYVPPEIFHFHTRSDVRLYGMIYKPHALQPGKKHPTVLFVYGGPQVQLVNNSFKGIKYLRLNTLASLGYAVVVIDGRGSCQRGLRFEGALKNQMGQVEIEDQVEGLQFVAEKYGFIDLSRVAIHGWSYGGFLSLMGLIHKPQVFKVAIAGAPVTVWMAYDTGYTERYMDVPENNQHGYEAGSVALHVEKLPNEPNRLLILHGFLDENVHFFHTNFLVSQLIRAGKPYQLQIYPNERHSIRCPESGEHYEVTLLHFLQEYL

{"SMILES REPRESENTATION": "CC(C)(CC(=O)N1C2CCC1CC2)NCC(=O)N1C[C@@H](F)C[C@H]1C#N", "TEST SYSTEM": "UniProt Q86TI2", "IC50": "> 20 µM"}
{"SMILES REPRESENTATION": "CC(C)(CC(=O)N1CCSC1)NCC(=O)N1C[C@@H](F)C[C@H]1C#N", "TEST SYSTEM": "UniProt Q86TI2", "IC50": "> 20 µM"}
{"SMILES REPRESENTATION": "CC(C)(CC(=O)N1CCCCCC1)NCC(=O)N1C[C@@H](F)C[C@H]1C#N", "TEST SYSTEM": "UniProt Q86TI2", "IC50": "> 20 µM"}
{"SMILES REPRESENTATION": "CC(C)(CC(=O)N1CCN(S(C)(=O)=O)CC1)NCC(=O)N1C[C@@H](F)C[C@H]1C#N", "TEST SYSTEM": "UniProt Q86TI2", "IC50": "> 20 µM"}
{"SMILES REPRESENTATION": "CC(C)(CC(=O)N1Cc2ccccc2C1)NCC(=O)N1CCC[C@H]1C#N", "TEST SYSTEM": "UniProt Q86TI2", "IC50": "> 100 µM"}

* * *

Each entry below carries its measured IC50, system: Dipeptidyl peptidase 4 (Homo sapiens, UniProt P27487).
Sequence (P27487 whole entry): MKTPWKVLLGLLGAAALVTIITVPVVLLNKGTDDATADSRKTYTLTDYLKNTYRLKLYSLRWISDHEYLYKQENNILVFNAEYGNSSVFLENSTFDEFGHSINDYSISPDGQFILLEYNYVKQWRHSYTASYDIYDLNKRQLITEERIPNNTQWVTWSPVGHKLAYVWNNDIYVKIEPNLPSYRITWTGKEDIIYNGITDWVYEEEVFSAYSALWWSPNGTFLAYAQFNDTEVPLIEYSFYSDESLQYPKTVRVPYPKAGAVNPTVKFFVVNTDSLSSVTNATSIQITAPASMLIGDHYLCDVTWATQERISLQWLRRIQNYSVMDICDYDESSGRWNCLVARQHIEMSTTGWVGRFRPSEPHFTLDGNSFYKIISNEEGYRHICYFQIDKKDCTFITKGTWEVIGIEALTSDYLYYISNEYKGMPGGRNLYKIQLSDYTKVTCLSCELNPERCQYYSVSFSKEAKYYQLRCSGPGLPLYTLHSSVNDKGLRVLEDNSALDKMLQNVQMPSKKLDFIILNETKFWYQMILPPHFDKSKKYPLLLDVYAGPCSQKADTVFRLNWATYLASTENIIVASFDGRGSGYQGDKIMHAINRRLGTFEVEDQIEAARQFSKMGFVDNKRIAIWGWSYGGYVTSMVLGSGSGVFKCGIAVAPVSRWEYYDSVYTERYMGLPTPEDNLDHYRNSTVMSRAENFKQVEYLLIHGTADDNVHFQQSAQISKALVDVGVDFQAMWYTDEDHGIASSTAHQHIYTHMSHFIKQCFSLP

{"COMPOUND": "C[C@@H]1CCCN1C(=O)CC(C)(C)NCC(=O)N1C[C@@H](F)C[C@H]1C#N", "READING UNIT": "nM", "IC50": 32}
{"COMPOUND": "CC(C)(CC(=O)N1CCCCC1)NCC(=O)N1C[C@@H](F)C[C@H]1C#N", "READING UNIT": "nM", "IC50": 27}
{"COMPOUND": "COc1ccc(NC(=O)CC(C)(C)NCC(=O)N2C[C@@H](F)C[C@H]2C#N)nc1", "READING UNIT": "nM", "IC50": 19}
{"COMPOUND": "CCOC(=O)N1CCN(C(=O)CC(C)(C)NCC(=O)N2C[C@@H](F)C[C@H]2C#N)CC1", "READING UNIT": "nM", "IC50": 63}
{"COMPOUND": "CN1CCN(C(=O)CC(C)(C)NCC(=O)N2C[C@@H](F)C[C@H]2C#N)CC1", "READING UNIT": "nM", "IC50": 93}
{"COMPOUND": "C#C[C@@H]1C[C@H](F)CN1C(=O)CC(C)(C)CC(=O)N[C@H]1C[C@@H]1c1cccc(Cl)c1", "READING UNIT": "nM", "IC50": 15}
{"COMPOUND": "CC(C)(CC(=O)N1CCC[C@H]1CO)NCC(=O)N1C[C@@H](F)C[C@H]1C#N", "READING UNIT": "nM", "IC50": 24}
{"COMPOUND": "CC(C)(CC(=O)N1CCCC1)NCC(=O)N1C[C@@H](F)C[C@H]1C#N [DBPR-108]", "READING UNIT": "nM", "IC50": 15}
{"COMPOUND": "CC(C)(CC(=O)N1CC[C@H](O)C1)NCC(=O)N1C[C@@H](F)C[C@H]1C#N", "READING UNIT": "nM", "IC50": 50}
{"COMPOUND": "CC(C)(CC(=O)Nc1ccccn1)NCC(=O)N1C[C@@H](F)C[C@H]1C#N", "READING UNIT": "nM", "IC50": 19}
{"COMPOUND": "CC(C)(CC(=O)N1CCN(S(C)(=O)=O)CC1)NCC(=O)N1C[C@@H](F)C[C@H]1C#N", "READING UNIT": "nM", "IC50": 24}
{"COMPOUND": "CC(C)(CC(=O)N1C2CCC1CC2)NCC(=O)N1C[C@@H](F)C[C@H]1C#N", "READING UNIT": "nM", "IC50": 66}
{"COMPOUND": "CC(C)(CC(=O)N1CCSC1)NCC(=O)N1C[C@@H](F)C[C@H]1C#N", "READING UNIT": "nM", "IC50": 27}
{"COMPOUND": "CC(C)(CC(=O)N1CC[C@@H](O)C1)NCC(=O)N1C[C@@H](F)C[C@H]1C#N", "READING UNIT": "nM", "IC50": 30}
{"COMPOUND": "CC(C)(CC(=O)NC1CCCC1)NCC(=O)N1C[C@@H](F)C[C@H]1C#N", "READING UNIT": "nM", "IC50": 29}
{"COMPOUND": "CC(C)(CC(=O)N1CC[C@@H](O)C1)NCC(=O)N1CCC[C@H]1C#N", "READING UNIT": "nM", "IC50": 180}
{"COMPOUND": "CC(C)(CC(=O)N1CCOCC1)NCC(=O)N1C[C@@H](F)C[C@H]1C#N", "READING UNIT": "nM", "IC50": 20}
{"COMPOUND": "CC(C)(CC(=O)N1CC=CCC1)NCC(=O)N1C[C@@H](F)C[C@H]1C#N", "READING UNIT": "nM", "IC50": 18}
{"COMPOUND": "CC(C)(CC(=O)N1CCCCCC1)NCC(=O)N1C[C@@H](F)C[C@H]1C#N", "READING UNIT": "nM", "IC50": 160}
{"COMPOUND": "CC(C)(CC(=O)N1CCC(=O)CC1)NCC(=O)N1C[C@@H](F)C[C@H]1C#N", "READING UNIT": "nM", "IC50": 26}
{"COMPOUND": "COc1ccc(NC(=O)CC(C)(C)NCC(=O)N2C[C@@H](F)C[C@H]2C#N)cc1OC", "READING UNIT": "nM", "IC50": 27}

* * *

- TEST SYSTEM: UniProtKB P27487
pIC50: −log10 of the molar value.

{"COMPOUND": "CC(C)(CC(=O)N1CCOCC1)NCC(=O)N1C[C@@H](F)C[C@H]1C#N", "pIC50": 7.85}
{"COMPOUND": "CC(C)(CC(=O)Nc1ccccn1)NCC(=O)N1C[C@@H](F)C[C@H]1C#N", "pIC50": 7.62}
{"COMPOUND": "C#C[C@@H]1C[C@H](F)CN1C(=O)CC(C)(C)CC(=O)N[C@H]1C[C@@H]1c1cccc(Cl)c1", "pIC50": 6.68}
{"COMPOUND": "CC(C)(CC(=O)N1CCCC1)NCC(=O)N1C[C@@H](F)C[C@H]1C#N [DBPR-108]", "pIC50": 8.00}
{"COMPOUND": "CC(C)(CC(=O)N1CC[C@@H](O)C1)NCC(=O)N1C[C@@H](F)C[C@H]1C#N", "pIC50": 7.64}

* * *

Each entry below carries its measured IC50, system: Dipeptidyl peptidase 8 (Homo sapiens).
Sequence (Q6V1X1 whole entry): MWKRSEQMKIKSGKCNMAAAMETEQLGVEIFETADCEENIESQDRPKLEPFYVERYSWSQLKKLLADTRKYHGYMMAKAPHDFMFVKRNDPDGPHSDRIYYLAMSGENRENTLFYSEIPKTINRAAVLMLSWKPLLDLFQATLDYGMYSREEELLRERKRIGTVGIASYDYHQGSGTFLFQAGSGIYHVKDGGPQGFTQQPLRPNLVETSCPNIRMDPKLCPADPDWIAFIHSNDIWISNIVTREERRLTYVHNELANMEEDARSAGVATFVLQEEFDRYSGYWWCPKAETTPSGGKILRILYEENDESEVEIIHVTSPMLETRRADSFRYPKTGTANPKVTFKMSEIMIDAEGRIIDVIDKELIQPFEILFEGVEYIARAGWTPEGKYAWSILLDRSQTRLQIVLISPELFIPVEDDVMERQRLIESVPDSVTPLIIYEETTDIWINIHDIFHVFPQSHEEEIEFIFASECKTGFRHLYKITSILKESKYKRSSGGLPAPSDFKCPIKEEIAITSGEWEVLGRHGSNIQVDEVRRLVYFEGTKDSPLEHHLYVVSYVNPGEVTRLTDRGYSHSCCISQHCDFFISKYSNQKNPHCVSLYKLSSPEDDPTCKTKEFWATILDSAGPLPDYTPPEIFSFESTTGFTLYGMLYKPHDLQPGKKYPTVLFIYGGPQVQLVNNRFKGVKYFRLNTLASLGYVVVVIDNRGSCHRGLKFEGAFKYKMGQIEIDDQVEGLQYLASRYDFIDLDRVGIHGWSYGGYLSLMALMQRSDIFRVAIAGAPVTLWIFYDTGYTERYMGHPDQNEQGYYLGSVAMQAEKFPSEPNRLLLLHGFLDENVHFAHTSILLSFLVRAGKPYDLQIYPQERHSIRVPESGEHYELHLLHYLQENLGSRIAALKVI

{"SMILES REPRESENTATION": "CC(C)(CC(=O)N1CCC[C@H]1CO)NCC(=O)N1C[C@@H](F)C[C@H]1C#N", "IC50": "> 20 µM"}
{"SMILES REPRESENTATION": "CC(C)(CC(=O)N1C2CCC1CC2)NCC(=O)N1C[C@@H](F)C[C@H]1C#N", "IC50": "> 20 µM"}
{"SMILES REPRESENTATION": "CC(C)(CC(=O)N1CC[C@@H](O)C1)NCC(=O)N1C[C@@H](F)C[C@H]1C#N", "IC50": "> 20 µM"}
{"SMILES REPRESENTATION": "CC(C)(CC(=O)N1CC=CCC1)NCC(=O)N1C[C@@H](F)C[C@H]1C#N", "IC50": "> 20 µM"}
{"SMILES REPRESENTATION": "CC(C)(CC(=O)N1CC[C@@H](F)C1)NCC(=O)N1C[C@@H](F)C[C@H]1C#N", "IC50": "> 20 µM"}
{"SMILES REPRESENTATION": "CC(C)(CC(=O)N1CCOCC1)NCC(=O)N1C[C@@H](F)C[C@H]1C#N", "IC50": "> 20 µM"}
{"SMILES REPRESENTATION": "COc1ccc(NC(=O)CC(C)(C)NCC(=O)N2C[C@@H](F)C[C@H]2C#N)cc1OC", "IC50": "> 20 µM"}
{"SMILES REPRESENTATION": "CC(C)(CC(=O)N1CCC(=O)CC1)NCC(=O)N1C[C@@H](F)C[C@H]1C#N", "IC50": "> 20 µM"}
{"SMILES REPRESENTATION": "CC(C)(CC(=O)N1CCCCC1)NCC(=O)N1C[C@@H](F)C[C@H]1C#N", "IC50": "> 20 µM"}
